Property: log10 of IC50; scope: individual binders
Measurement Target: full-length beta-Catenin (Uniprot ID P35222) (Homo sapiens (Human)) (UniProt P35222)
Sequence (P35222 whole entry): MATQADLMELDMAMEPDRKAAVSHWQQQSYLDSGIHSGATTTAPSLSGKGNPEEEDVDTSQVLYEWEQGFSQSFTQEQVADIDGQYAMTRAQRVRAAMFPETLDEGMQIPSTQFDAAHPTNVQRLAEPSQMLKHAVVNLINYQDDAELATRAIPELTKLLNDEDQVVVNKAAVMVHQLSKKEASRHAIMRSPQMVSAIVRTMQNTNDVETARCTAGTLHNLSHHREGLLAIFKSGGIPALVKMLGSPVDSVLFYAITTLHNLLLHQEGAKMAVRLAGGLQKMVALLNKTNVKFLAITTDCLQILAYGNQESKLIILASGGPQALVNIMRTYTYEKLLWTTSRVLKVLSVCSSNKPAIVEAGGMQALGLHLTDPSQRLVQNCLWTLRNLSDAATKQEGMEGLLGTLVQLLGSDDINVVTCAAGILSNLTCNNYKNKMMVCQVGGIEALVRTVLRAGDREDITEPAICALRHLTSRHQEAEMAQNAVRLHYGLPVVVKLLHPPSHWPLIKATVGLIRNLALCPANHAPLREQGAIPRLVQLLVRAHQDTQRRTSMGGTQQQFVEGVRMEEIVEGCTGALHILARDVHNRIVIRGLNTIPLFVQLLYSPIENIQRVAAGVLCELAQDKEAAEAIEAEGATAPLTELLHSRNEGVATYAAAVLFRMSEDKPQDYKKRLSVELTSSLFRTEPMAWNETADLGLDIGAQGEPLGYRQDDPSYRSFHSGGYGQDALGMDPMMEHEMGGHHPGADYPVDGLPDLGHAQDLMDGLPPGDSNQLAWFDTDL
Experiment Description: fluorescence polarization competition; peptide titrated against full-length beta-catenin + 5FAM-TCF4(10-53)
Starred links: 1 amine or outer side, 2 acyl side, 3 side chain; linkers in the order of their positions; H or OH if unused. Positions of bridges follow the written chain, without caps; N, C: chain ends. Non-standard residues stand in square brackets, D forms with d. Primed or numbered codes have the meaning given here. B5(3) = 2,2-bis(4-pentenyl)glycine (stitching residue), C=CCCCC(CCCC=C)(N[*:1])C(=O)[*:2]; B5 = 2-amino-2-(pent-4-en-1-yl)hept-6-enoic acid, C=CCCCC(CCCC=C)(N[*:1])C(=O)[*:2]; Bta = N[C@@H](Cc1csc2ccccc12)C(=O)O; αAllylPro = C=CC[C@@]1(C(=O)O)CCCN1; tBuAla = CC(C)(C)C[C@H](N)C(=O)O; 3Thi = N[C@@H](Cc1ccsc1)C(=O)O; Cha = N[C@@H](CC1CCCCC1)C(=O)O; S8 = C=CCCCCCC[C@](C)(N)C(=O)O; Phg = N[C@H](C(=O)O)c1ccccc1
Scale: decimal log of IC50, IC50 in nM.

Ac-[αAllylPro]D[tBuAla][B5(3)]DEAAFN[S8]F[Bta]-NH2 (staple 1-4, 4-11) [I-713]
1.85
Ac-[αAllylPro]DI[B5]DEAA[Phg]Q[S8]F[Bta]Q-NH2 (staple 1-4, 4-11) [I-726]
3.70
Ac-[αAllylPro]DI[B5(3)]DEAAFN[S8]F[Bta]-NH2 (staple 1-4, 4-11) [I-715]
1.78

Ask: Could you tell me which log10 of IC50 is on file for Ac-[αAllylPro]DI[B5]DEAA[Cha]Q[S8]F[Bta]Q-NH2 (staple 1-4, 4-11) [I-722] ?
Reply: 3.05

Ask: Could you tell me which log10 of IC50 is on file for Ac-[αAllylPro]DI[B5]DEAAFN[S8][3Thi][Bta]-NH2 (staple 1-4, 4-11) [I-721] ?
Reply: 1.66

All values here come from patent US20240116985A1.
